Data provenance is patent EP4644419A1.

Target: T1, monkey antigen protein (monkey CD112R, Uniprot ID: A0A2K5WVV8) (monkey, UniProt A0A2K5WVV8 41-171)
T1 sequence: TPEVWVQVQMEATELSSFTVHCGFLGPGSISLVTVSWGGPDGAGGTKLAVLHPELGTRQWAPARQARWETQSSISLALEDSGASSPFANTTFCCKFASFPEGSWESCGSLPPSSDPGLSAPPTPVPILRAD
Experiment: ELISA, monkey antigen protein (as Example 6.1)
ASSAY ENDPOINT: EC50 (nM)
Write down the numeric answer in nM and omit the unit.

C119 (antibody, human IgG1, kappa, V domains shown) VH: EVKLVESGGGLVQPGGSLKLSCVASGFTFNTYIMSWVRQTPEKRLELVADISNSGGNTYYSDTVKGRFTISRDNAKNTLYLQMSSLKSEDTAMYYCARPDNWDPFVYWGQGTLVTVSA VL: DIQMTQSSSSFSVSLGDRVTITCKASEDIYARLAWYQQKPGNAPRLLISGATSLETGVPSRFSGSGSGKNYTLSITSLQTEDVGTYYCQQHWSTPWTFGGGTNLEIKR ... 0.08
C123 (antibody, human IgG1, kappa, V domains shown) VH: EVQLVESGGGLVKPGGSLKLSCAASGFTFSNFAMSWVRQTPAMRLESVATIVNGGINTYYPDTVKGRFTVSRDNAKNTLYLQMSSLRSEDTAIYYCARHDDFLYYAMDYWGQGTSVTVSS VL: QIVLTQSPAIMSASPGEKVTMTCSASSSVSYMFWYQQKPGSSPRLLIYDTSNLASGVPVRFSGSGSGTSYSLTISRLEAEDAATYYCQQWTSYPLTFGAGTKLDLKR ... 0.056

Form field: reported EC50 of C25 (antibody, human IgG1, kappa, V domains shown) VH: QVQLQQPGAELVRPGTSVKLSCKASGNTFTSYWMHWVKQRPGQGHEWIGVIDASDSKTKYNQKFKGKATLTVDTSSSTAYMQLSSLTSEDSAVYYCARYYSGSSYGLDYWGQGTTLTVSS VL: DIQMTQTASSLSASLGDRVTISCRASQDISNYLNWYQQKPDGTVKLLIYYTSRLHSGVPSRFSGSGSGTDYSLTISNLEQEDIATYFCQQGNTLPPTFGGGTKLEIKR 3.8
